In this section, each of the compounds is paired with its reported Inhibition.
System: Plasmodium falciparum
Test: GSK_TCMDC: Inhibition of Plasmodium falciparum 3D7 in whole red blood cells, using parasite LDH activity as an index of growth. Test compounds present at 2uM
Assay type: functional

Please review the following examples before continuing.
CNc1cc(-c2ccc3ccnc(N)c3c2)nc(N)n1.O=CO = 100%
Cc1ccc2c(c1)c(-c1ccccc1)c(-c1ccccc1)n2CC(O)CN1CCN(CC=Cc2ccccc2)CC1 (centres undefined) = 98%
CCn1c(CN2CCN(Cc3ccccc3)CC2)nc2cc(NC(=O)c3cccs3)ccc21 = 97%
CNC(=O)c1cc(Nc2nnc(-c3ccc(C)c(S(=O)(=O)NC4CCCCC4)c3)c3ccccc23)ccc1OC = 87%
Cc1cc(=NN=Cc2ccc(F)cc2)c2cccc(C)c2[nH]1 = 100%
CCN(CC)CCN(Cc1ccc(-c2ccc(C(F)(F)F)cc2)cc1)C(=O)Cn1cc(Cc2cnn(C)c2)c(=O)nc1/C=C/c1ccc(F)cc1.O=C(O)C(O)C(O)C(=O)O = 96%
Br.CCCc1cccc(OC)c1OCCCON1C(N)=NC(N)=NC1(C)C = 94%
CCCNS(=O)(=O)c1ccc(NC(=O)C(C)Oc2ccc([N+](=O)[O-])cc2)cc1 (centres undefined) = 100%

Next compound, please.
stdin: Read the entry CCN(CC)CCCN(CCCN(CC)CC)c1cc(C)nc(Nc2ccc(Br)cc2)n1.Cl and write its reported Inhibition.
stdout: 100%
